# Test system: MOLT-4 leukemia
# PROTOCOL_TEXT: NCI tumour cell line growth inhibition, 48 h
*1 amine or outer side, *2 acyl side, *3 side chain or, on linkers, in order; H or OH if unused. Where a SMILES comes first, the peptide text is derived from it. Bridges are numbered along the chain shown (N, C = ends). [ ]: non-standard residue; d: D form. The star is where a group is joined. Phe(3-Me) = Cc1cccc(C[C@H](N)C(=O)O)c1; NH(4-Cl-2-F-phenyl) = Fc1cc(Cl)ccc1N*; Pro(4R-Me) = C[C@H]1CN[C@H](C(=O)O)C1; Hyp = O=C(O)[C@@H]1C[C@@H](O)CN1; aThr = C[C@H](O)[C@H](N)C(=O)O; Pip = O=C(O)[C@@H]1CCCCN1; CO = O=C([*:1])[*:2]
READOUT_TYPE: GI50

{"columns": ["COMPOUND", "OBSERVED"],
 "data": [
  ["CCC(C)/C=C(C)/C=C/C(=O)c1c(O)c(-c2ccc(O)cc2)c[nH]c1=O (stereo not drawn)", "2.73 µM"],
  ["NC(=NC1CCCCCC1)c1ccc(N2CCN(c3ccc(C(N)=NC4CCCCCC4)cc3)CC2)cc1", "23.9 µM"],
  ["Cc1nn2c(/C=C3/C(=O)Nc4ccc(Cl)cc43)c(-c3ccccc3)nc2s1", "6.96 µM"],
  ["Fc1ccc(-c2nnc3sc(-c4cccc(Cl)c4)nn23)cc1Cl", "> 100 µM"]
]}

For the compound `CN(C)CC#Cc1cccc(C(=O)c2cnn(-c3ccc(F)cc3)c2N)c1` , give its reported GI50.
> 25 µM

For the compound `O=c1[nH]nc2c3c(cccc13)NC(CN1Cc3ccccc3C1)=N2` , give its reported GI50.
4.56 µM

For the compound `COc1cccc(/C=C/C(=O)c2cc3c(N)c(C(=O)Nc4cccc(Cl)c4C)sc3nc2C)c1` , give its reported GI50.
1.26 µM

For the compound Cc1cccc(C[C@H](NC(=O)Nc2ccc(Cl)cc2F)C(=O)N[C@@H]2C(=O)N3C[C@H](O)C[C@H]3C(=O)N3CCCC[C@H]3C(=O)N[C@@H](C)C(=O)N3C[C@H](C)C[C@H]3C(=O)O[C@H]2C)c1 ({NH(4-Cl-2-F-phenyl)-CO}-[Phe(3-Me)][aThr][Hyp][Pip]A[Pro(4R-Me)]; ester 2-C) , give its reported GI50.
0.876 µM
